Entries and their measured IC50 follow.
- target.or.system: Amine oxidase [flavin-containing] B (Homo sapiens)
- Sequence (P27338 whole entry): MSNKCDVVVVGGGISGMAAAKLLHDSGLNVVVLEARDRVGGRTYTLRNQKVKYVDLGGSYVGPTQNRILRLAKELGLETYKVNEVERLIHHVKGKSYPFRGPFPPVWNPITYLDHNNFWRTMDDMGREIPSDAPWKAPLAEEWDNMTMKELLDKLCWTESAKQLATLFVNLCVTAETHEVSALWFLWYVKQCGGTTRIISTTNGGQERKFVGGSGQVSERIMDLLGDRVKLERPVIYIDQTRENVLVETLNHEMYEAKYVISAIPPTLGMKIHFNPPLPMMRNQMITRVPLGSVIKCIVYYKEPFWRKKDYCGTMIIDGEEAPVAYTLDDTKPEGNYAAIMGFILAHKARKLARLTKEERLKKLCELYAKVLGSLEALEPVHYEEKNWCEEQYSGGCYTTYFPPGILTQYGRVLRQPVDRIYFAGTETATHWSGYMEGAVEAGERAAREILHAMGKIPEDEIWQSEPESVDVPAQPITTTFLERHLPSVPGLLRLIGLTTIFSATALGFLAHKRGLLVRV
- assay.notes: Inhibition of human recombinant MAO-B expressed in baculovirus infected BTI-TN5B1-4 cells using p-tyramine as substrate assessed as reduction in H2O2 production preincubated for 15 mins followed by substrate addition measured after 15 mins by Amplex red dye based fluorescence assay
reported.metric: IC50 (µM)

chemical.string | value.unit | observed
Cc1ccc2oc(=O)c(-c3ccc(Cl)nn3)cc2c1 | µM | 13.5
Cc1ccc2cc(-c3ccc(Cl)nn3)c(=O)oc2c1 | µM | 2.51
COc1ccc2oc(=O)c(-c3ccc(Br)nn3)cc2c1 | µM | 0.56
COc1ccc2oc(=O)c(-c3ccc(OC)nn3)cc2c1 | µM | 11.1
COc1ccc(-c2cc3cccc(C)c3oc2=O)nn1 | µM | 5.35
COc1cccc2cc(-c3ccc(Br)nn3)c(=O)oc12 | µM | 12.8
Cc1ccc2cc(-c3ccc(Br)nn3)c(=O)oc2c1 | µM | 0.75
COc1ccc(-c2cc3cc(C)ccc3oc2=O)nn1 | µM | 17.6
COc1ccc2cc(-c3ccc(Br)nn3)c(=O)oc2c1 | µM | 3.05
COc1ccc(-c2cc3ccc(C)cc3oc2=O)nn1 | µM | 13.5
COc1ccc2oc(=O)c(-c3ccc(Cl)nn3)cc2c1 | µM | 8.8
Cc1ccc2oc(=O)c(-c3ccc(Br)nn3)cc2c1 | µM | 2.16
COc1cccc2cc(-c3ccc(Cl)nn3)c(=O)oc12 | µM | 30.1
Cc1cccc2cc(-c3ccc(Br)nn3)c(=O)oc12 | µM | 2.64
COc1ccc2cc(-c3ccc(Cl)nn3)c(=O)oc2c1 | µM | 19.2
Cc1cccc2cc(-c3ccc(Cl)nn3)c(=O)oc12 | µM | 22.7
